# Assay Target: T1, low-density lipoprotein receptor-related protein (LRP), purified (human, UniProt Q07954 20-4544)
# T1 construct: mature; also called low density lipoprotein receptor-related protein/α2-macroglobulin receptor; LRP receptor
# T1 sequence (Q07954 20-4544, form in doubt): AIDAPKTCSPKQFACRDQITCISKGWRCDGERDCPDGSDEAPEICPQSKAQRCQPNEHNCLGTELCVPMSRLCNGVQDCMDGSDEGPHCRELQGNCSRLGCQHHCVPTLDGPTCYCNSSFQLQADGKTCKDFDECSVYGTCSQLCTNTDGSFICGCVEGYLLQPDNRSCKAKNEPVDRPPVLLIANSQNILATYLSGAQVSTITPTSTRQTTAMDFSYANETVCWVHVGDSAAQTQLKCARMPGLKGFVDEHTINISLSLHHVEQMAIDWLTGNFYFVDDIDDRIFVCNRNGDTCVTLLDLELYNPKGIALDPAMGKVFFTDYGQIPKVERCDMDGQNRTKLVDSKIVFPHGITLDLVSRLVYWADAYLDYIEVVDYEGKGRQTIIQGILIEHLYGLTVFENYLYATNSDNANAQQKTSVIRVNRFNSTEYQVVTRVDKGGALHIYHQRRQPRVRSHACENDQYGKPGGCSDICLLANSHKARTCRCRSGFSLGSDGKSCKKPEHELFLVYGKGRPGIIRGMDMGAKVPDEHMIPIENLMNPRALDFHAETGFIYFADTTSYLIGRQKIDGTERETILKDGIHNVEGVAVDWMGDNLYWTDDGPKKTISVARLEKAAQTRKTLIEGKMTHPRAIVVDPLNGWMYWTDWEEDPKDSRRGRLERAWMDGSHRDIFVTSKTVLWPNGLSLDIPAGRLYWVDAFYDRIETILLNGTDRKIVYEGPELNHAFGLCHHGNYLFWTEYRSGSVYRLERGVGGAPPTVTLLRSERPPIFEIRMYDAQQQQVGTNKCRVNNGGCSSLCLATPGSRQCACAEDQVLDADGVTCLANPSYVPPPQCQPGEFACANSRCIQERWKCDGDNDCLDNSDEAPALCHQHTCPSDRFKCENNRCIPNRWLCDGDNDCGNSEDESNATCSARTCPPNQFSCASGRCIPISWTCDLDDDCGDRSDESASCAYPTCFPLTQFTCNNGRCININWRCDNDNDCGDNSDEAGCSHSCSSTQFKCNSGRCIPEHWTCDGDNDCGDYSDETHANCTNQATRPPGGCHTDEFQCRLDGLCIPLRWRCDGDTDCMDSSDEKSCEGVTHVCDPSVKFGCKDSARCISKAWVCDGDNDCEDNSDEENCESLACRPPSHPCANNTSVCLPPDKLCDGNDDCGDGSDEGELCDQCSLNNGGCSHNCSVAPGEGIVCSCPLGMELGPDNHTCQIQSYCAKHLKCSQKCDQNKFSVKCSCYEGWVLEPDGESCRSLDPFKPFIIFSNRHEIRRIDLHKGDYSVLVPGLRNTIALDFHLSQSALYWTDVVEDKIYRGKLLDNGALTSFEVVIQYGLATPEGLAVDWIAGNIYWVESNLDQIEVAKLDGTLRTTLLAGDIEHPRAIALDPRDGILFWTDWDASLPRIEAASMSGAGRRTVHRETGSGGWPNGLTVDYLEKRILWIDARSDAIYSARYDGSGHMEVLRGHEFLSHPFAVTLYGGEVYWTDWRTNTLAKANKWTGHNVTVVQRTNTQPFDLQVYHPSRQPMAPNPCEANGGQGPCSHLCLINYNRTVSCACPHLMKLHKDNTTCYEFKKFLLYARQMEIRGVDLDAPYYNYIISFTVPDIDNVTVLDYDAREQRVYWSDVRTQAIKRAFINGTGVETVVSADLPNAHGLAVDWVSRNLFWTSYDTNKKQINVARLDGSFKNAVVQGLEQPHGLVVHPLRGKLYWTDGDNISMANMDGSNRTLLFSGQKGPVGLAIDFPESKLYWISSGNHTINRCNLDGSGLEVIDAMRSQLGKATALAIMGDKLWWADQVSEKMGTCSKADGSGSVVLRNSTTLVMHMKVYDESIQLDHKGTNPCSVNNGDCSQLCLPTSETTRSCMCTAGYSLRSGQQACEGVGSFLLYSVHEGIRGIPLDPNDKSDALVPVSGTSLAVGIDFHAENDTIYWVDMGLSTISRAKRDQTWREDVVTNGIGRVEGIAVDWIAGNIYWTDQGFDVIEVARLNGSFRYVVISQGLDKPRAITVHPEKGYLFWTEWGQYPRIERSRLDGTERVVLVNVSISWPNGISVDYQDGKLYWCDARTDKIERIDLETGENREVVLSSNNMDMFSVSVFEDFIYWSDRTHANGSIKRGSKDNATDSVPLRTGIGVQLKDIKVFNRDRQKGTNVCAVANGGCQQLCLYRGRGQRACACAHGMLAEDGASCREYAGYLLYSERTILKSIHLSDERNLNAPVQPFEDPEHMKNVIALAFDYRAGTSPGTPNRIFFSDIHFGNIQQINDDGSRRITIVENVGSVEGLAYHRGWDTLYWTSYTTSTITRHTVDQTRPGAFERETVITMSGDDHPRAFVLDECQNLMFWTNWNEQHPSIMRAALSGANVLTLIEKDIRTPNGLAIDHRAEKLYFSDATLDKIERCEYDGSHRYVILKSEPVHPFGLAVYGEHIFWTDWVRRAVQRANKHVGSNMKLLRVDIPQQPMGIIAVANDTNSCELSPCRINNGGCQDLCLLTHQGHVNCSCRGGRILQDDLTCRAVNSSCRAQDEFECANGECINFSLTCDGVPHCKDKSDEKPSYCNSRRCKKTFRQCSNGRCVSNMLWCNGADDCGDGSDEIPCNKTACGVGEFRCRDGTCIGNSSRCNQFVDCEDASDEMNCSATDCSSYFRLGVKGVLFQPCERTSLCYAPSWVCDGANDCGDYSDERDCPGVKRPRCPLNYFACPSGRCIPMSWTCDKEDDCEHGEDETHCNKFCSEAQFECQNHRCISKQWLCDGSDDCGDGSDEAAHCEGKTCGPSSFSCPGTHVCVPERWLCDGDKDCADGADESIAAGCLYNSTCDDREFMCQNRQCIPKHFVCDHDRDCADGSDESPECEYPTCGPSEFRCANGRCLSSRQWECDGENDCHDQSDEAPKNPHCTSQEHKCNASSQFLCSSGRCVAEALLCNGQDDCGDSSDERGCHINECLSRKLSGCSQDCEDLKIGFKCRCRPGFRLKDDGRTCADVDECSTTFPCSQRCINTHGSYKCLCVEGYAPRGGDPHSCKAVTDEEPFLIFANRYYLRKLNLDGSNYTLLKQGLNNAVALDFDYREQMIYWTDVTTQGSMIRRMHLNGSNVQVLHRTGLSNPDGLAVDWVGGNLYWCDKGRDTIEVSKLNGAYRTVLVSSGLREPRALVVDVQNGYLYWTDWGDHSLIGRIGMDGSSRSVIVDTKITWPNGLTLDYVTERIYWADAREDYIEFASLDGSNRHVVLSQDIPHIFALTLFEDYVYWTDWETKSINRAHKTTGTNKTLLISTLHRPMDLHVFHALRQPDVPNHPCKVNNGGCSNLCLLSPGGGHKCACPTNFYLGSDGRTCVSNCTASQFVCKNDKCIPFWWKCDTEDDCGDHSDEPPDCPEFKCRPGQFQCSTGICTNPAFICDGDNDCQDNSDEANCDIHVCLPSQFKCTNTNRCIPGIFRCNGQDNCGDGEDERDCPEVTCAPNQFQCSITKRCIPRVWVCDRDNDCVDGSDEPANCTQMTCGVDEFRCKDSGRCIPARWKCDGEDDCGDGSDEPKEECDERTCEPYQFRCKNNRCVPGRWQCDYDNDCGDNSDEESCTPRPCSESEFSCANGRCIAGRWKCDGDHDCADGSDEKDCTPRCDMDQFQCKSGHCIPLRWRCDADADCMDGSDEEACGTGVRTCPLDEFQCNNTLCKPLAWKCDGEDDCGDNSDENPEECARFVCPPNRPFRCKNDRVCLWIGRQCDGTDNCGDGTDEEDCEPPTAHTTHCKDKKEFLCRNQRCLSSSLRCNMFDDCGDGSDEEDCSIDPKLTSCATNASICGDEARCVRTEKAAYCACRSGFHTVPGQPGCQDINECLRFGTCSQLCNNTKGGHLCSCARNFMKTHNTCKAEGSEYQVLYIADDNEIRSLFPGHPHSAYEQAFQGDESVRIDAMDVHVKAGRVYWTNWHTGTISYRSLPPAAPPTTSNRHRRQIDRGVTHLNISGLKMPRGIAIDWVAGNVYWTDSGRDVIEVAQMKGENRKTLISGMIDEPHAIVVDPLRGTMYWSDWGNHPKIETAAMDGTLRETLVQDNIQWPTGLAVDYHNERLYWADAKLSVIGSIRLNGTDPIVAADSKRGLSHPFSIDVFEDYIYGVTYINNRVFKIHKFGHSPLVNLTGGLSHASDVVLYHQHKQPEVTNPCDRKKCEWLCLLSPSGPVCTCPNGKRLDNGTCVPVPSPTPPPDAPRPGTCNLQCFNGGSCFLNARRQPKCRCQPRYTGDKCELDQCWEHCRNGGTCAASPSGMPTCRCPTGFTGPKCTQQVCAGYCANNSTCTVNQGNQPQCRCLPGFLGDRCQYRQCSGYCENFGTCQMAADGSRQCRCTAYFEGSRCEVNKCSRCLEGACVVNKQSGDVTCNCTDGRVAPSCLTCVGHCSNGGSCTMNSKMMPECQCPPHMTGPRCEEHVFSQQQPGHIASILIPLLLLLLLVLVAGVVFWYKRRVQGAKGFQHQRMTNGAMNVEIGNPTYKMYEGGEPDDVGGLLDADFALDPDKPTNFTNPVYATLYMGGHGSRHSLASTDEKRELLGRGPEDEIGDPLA
# Method: SPR, BIAcore 3000, one-site model, KD = koff/kon
Quantity Kind: pKd
Scale explanation: pKd corresponds to minus log10 of a concentration expressed in moles per litre.

Request the reported pKd associated with recombinant A2 mutant #15 (His-497 to Ala) (other, hx-A2 form from Sf9 cells) SGAKKHPKTWVHYIAAEEEDWDYAPLVLAPDDRSYKSQYLNNGPQRIGRKYKKVRFMAYTDETFKTREAIQHESGILGPLLYGEVGDTLLIIFKNQASRPYNIYPHGITDVRPLYSRRLPKGVKALKDFPILPGEIFKYKWTVTVEDGPTKSDPRCLTRYYSSFVNMERDLASGLIGPLLICYKESVDQRGNQIMSDKRNVILFSVFDENRSWYLTENIQRFLPNPAGVQLEDPEFQASNIMHSINGYVFDSLQLSVCLHEVAYWYILSIGAQTDFLSVFFSGYTFKHKMVYEDTLTLFPFSGETVFMSMENPGLWILGCHNSDFRNRGMTALLKVSSCDKNTGDYYEDSYEDISAYLLSKNNAIEPR
7.29

Source: patent US20070232789A1
